- ASSAYED_SYSTEM: T1, TGFβ3 (R&D Systems)
- T1 sequence (P10600 301-412, species assumed, looked up): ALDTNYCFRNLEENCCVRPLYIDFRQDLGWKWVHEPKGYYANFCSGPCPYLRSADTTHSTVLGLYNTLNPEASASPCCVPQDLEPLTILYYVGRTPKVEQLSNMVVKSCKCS
- ASSAY_REMARKS: SPR (Biacore T200), TGFβ amine-coupled to chip, 1:1 fit
Below, each entry is listed alongside its reported Kd.
QUANTITY_MEASURED: Kd (nM)

1. Caninized anti-TGFβ1,2,3 antibody VH5.10 - VL3 (antibody, V domains shown) VH: EVQLVESGGDLVKPGGSLRLSCVASGFTFSSNVISWVRQAPGQGLEWMGGVIPIVDIANYAQRFKGRVTLTADTSTNTVYMELSNLRTEDTAVYYCARTLGLVLDAMDYWGQGTLVTVSS VL: EIVMTQSPASLSLSQEEKVTITCRASQSLGSSYLAWYQQKPGQAPKLLIYGASSRAPGVPSRFSGSGSGTDFSFTISSLEPEDVAVYYCQQYADSPITFGQGTKLEIKR: 1.5
2. Felinized anti-TGFβ1,2,3 antibody VH2.2 - VL7 (antibody, V domains shown) VH: QVLLVQSGADVRKPGASVKIFCKASGYTFSSNVMHWVRQTPAQGFEWMGSVIPIVDIATYARRFQGRLVLTADTSTNTAYMELRSLKSADTAVYYCARTLGLVLDAMDYWGQGSLVTVSS VL: DIVLTQPPSLSVNLGQTARITCRASQSLGSSYLAWYQQKPGQAPKLVTYGASSRAPGIPDRFSGTNSGITATLTISGARAEDEADYYCQQYADSPITFGQGTKLEIKR: 3.52
3. Caninized anti-TGFβ1,2,3 antibody VH3.1 - VL2 (ZTS-122) (antibody, V domains shown) VH: DVQLVESGGDLVKPGGSLRLTCVASGYTFSSNVMHWVRQAPGKGLQWVAYVIPIVDIAYYADSVKGRFTISIDNSKNTLYLQMNSLKTEDTATYYCARTLGLVLDAMDYWGQGTLVTVSS VL: ETVLTQSPGTLSLSPGERATLSCRASQSLGSSYLAWYQQKPGQAPRLLIYGASSRAPGVPARFSGSGSGTDFTLTISSLEPEDFAVYYCQQYADSPITFGQGTKLEIKR: 1.12
